Data origin, for the record: paper PMC6584500

- subjectOfTest: GST-MSI2 (full-length human MSI2) (Homo sapiens, UniProt Q96DH6, F97A)
- Construct: full-length, N-terminal GST-Flag tag kept (pGEX6P3), expressed in E. coli BL21(DE3)
- Sequence (Q96DH6 whole entry F97A): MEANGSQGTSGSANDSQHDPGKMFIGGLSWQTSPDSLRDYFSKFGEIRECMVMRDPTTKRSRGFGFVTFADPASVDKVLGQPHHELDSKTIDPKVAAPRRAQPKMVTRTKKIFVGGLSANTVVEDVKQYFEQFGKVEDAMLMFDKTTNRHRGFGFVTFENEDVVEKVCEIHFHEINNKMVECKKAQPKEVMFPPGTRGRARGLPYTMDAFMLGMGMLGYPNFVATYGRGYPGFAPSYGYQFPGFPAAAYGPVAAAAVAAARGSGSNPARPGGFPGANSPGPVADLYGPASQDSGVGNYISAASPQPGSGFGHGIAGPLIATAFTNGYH
- methodSummary: microscale thermophoresis
measurementKind: Kd (µM)

givensmiles=Cc1cc2nc3c(=O)[nH]c(=O)nc-3n(C)c2cc1C=O measurementkind=Kd unitsymbol=µM reportedvalue=69.5

* * *

- subjectOfTest: GST-MSI2 (full-length human MSI2) (Homo sapiens, UniProt Q96DH6, R100A)
- Construct: full-length, N-terminal GST-Flag tag kept (pGEX6P3), expressed in E. coli BL21(DE3)
- Sequence (Q96DH6 whole entry R100A): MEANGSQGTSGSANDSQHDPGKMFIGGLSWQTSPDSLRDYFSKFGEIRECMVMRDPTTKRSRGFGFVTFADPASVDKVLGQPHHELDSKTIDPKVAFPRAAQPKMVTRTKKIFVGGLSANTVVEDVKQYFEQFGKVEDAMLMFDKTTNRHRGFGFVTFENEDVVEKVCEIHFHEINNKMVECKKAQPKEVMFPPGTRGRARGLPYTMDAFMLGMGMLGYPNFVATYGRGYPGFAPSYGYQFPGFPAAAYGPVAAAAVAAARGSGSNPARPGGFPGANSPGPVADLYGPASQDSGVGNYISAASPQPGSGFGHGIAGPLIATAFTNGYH
- methodSummary: microscale thermophoresis
measurementKind: Kd (µM)

givensmiles=Cc1cc2nc3c(=O)[nH]c(=O)nc-3n(C)c2cc1C=O measurementkind=Kd reportedvalue=148
